# STUDY SYSTEM: T1, Native human IL-18 (human, UniProt Q14116 37-193)
# T1 sequence: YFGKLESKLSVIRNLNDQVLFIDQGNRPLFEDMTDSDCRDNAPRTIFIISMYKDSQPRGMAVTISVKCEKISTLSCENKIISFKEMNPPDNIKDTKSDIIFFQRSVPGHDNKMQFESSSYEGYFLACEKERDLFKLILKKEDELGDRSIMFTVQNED
# ASSAY INFO: cell-based or functional assay
Field: class. Source value: IC50, inhibition of IFN-γ release, PBMC, Native IL-18 (LPS/IL-12). Ranges: b0: < 0.5 nM; b1: ≥ 0.5 nM and < 2 nM; b2: ≥ 2 nM

Using the reported IC50, inhibition of IFN-γ release, PBMC, Native IL-18 (LPS/IL-12), which band applies to MOR10222 (antibody, human IgG1, lambda, L234A L235A, V domains shown) VH: EVQLVQSGAEVKKPGSSVKVSCKASGGTFNSYAISWVRQAPGQGLEWMGNIIPMTGQTYYAQKFQGRVTITADESTSTAYMELSSLRSEDTAVYYCARAAYHPLVFDNWGQGTLVTVSS VL: QSVLTQPPSASGTPGQRVTISCSGSSSNIGNHYVNWYQQLPGTAPKLLIYRNNHRPSGVPDRFSGSKSGTSASLAISGLQSEDEADYYCQSWDYSGFSTVFGGGTKLTVLG ?
b0

Hello team, could you let me know which band the following binder falls into: MOR10222_E1Q_N30S_M54I (antibody, human IgG1, lambda, L234A L235A, V domains shown) VH: QVQLVQSGAEVKKPGSSVKVSCKASGGTFSSYAISWVRQAPGQGLEWMGNIIPITGQTYYAQKFQGRVTITADESTSTAYMELSSLRSEDTAVYYCARAAYHPLVFDNWGQGTLVTVSS VL: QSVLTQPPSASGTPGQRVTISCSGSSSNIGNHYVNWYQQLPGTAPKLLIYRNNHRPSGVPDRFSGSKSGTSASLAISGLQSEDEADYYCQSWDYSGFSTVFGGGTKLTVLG
b0

Band of MOR09466 (antibody, human IgG1, lambda, L234A L235A, V domains shown, also called MOR9466) VH: EVQLVQSGAEVKKPGSSVKVSCKASGGTFNSYAISWVRQAPGQGLEWMGNIIPYSGFAYYAQKFQGRVTITADESTSTAYMELSSLRSEDTAVYYCARAAYHPLVFDNWGQGTLVTVSS VL: DIVLTQPPSVSGAPGQRVTISCSGSSSNIGNHYVNWYQQLPGTAPKLLIYRNNHRPSGVPDRFSGSKSGTSASLAITGLQSEDEADYYCQSWDYSGFSTVFGGGTKLTVLG ?
b2

Band of MOR08776 (antibody, human IgG1, lambda, V domains shown, also called MOR8776) VH: QVQLQESGPGLVKPGETLSLTCTVSGGSISTGSYYWNWIRQAPGKGLEWIGEINHMGITYYNPSLKGRVTISVDTSKNQFSLKLSSVTAEDTAVYYCARTTRYWMSHILAYGMDYWGQGTLVTVSS VL: DIVLTQPPSVSGAPGQRVTISCSGSSSNIGNHYVSWYQQLPGTAPKLLIYANTKRPSGVPDRFSGSKSGTSASLAITGLQSEDEADYYCSSYDGSQSIVFGGGTKLTVLG ?
b2

# bin label for MOR13363 (antibody, human IgG1, kappa, L234A L235A, V domains shown) VH: QVQLLESGGGLVQPGGSLRLSCAASGFTFSSYAIHWVRQAPGKGLEWVSVISGEGSNTYYADSVKGRFTISRDNSKNTLYLQMNSLRAEDTAVYYCARVMIGYGFDYWGQGTLVTVSS VL: DIQMTQSPSSLSASVGDRVTITCRASQSIFNYLNWYQQKPGKAPKLLIYDSSTLQSGVPSRFSGSGSGTDFTLTISSLQPEDFATYYCLQYSGFLFTFGQGTKVEIKR
b0

Please let me know in which category the item MOR10501 (antibody, human IgG1, lambda, L234A L235A, V domains shown, also called MOR010501) VH: EVQLQESGPGLVKPGETLSLTCTVSGGSISTGSYYWNWIRQAPGKGLEWIGEIWHSGPTFYNPSLKSRVTISVDTSKNQFSLKLSSVTAADTAVYYCARTTRYWMSHILAYGMDYWGQGTLVTVSS VL: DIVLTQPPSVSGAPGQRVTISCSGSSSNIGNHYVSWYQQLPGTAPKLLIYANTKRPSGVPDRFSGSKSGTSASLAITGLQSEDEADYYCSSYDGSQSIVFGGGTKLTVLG belongs.
b1

Sort MOR10502 (antibody, human IgG1, lambda, L234A L235A, V domains shown, also called MOR010502) VH: EVQLQESGPGLVKPGETLSLTCTVSGGSISTGSYYWNWIRQAPGKGLEWIGEIHGHGFTFYNPSLKSRVTISVDTSKNQFSLKLSSVTAADTAVYYCARTTRYWMSHILAYGMDYWGQGTLVTVSS VL: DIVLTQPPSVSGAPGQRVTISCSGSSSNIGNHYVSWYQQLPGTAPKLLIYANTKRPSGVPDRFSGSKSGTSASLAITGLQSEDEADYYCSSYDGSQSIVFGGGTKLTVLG into one of the categories.
b2

Class? Entry: MOR09441 (antibody, human IgG1, lambda, L234A L235A, V domains shown, also called MOR9441) VH: EVQLVQSGAEVKKPGSSVKVSCKASGGTFNSYAISWVRQAPGQGLEWMGWINPFYIGETFYAQKFQGRVTITADESTSTAYMELSSLRSEDTAVYYCARAAYHPLVFDNWGQGTLVTVSS VL: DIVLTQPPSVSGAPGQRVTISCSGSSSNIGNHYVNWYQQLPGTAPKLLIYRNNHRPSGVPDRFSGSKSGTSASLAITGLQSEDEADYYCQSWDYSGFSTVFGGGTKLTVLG
b0

Looking at MOR10497 (antibody, human IgG1, lambda, L234A L235A, V domains shown, also called MOR010497) VH: EVQLQESGPGLVKPGETLSLTCTVSGGSISTGSYYWNWIRQAPGKGLEWIGEIQSPGYTFYNPSLKSRVTISVDTSKNQFSLKLSSVTAADTAVYYCARTTRYWMSHILAYGMDYWGQGTLVTVSS VL: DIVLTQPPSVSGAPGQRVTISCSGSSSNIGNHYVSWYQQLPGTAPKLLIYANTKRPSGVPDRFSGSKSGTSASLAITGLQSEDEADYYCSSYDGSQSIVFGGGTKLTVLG , which class would you pick?
b1

Hello team, could you let me know which band the following binder falls into: MOR08775 (antibody, human IgG1, lambda, V domains shown, also called MOR8775) VH: QVQLVQSGAEVKKPGSSVKVSCKASGGTFNSYAISWVRQAPGQGLEWMGGIIPIYGTANYAQKFQGRVTITADESTSTAYMELSSLRSEDTAVYYCARAAYHPLVFDNWGQGTLVTVSS VL: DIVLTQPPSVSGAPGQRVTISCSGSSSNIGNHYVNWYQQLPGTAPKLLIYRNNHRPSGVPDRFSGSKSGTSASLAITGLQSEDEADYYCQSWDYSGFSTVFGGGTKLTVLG
b1

Source of measurements: patent US20140112915A1
